- system under test: T1, cyno IL-33 N-His (cynomolgus monkey)
- T1 chain: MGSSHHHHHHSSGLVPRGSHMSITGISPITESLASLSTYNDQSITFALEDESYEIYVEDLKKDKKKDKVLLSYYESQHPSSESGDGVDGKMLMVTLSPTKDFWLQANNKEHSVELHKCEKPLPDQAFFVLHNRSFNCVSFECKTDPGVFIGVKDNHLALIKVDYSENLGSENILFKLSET
- experiment summary: SPR Biacore T200, 37 C
- Procedure: The binding kinetics of the anti-IL-33 antibody 10C12.38.H6.87Y.58I IgG4 and each anti-IL-33 antibody listed in Table 5 (RG1-RG20) to IL-33 were measured using surface plasmon resonance (SPR) on a BIACORE® T200 instrument (GE Healthcare). […] Antibody binding was measured to human IL-33 (R&D systems, #3625-IL-010/CF) and cyno IL-33 N-His (SEQ ID NO: 317) (Genentech, Inc.). […] After injection, disassociation of the ligand from the antibody was monitored for 10 min in running buffer. […]
Quick reference for koff among some binders

binder	koff (s⁻¹)
H4H9660P (antibody, V domains shown) VH: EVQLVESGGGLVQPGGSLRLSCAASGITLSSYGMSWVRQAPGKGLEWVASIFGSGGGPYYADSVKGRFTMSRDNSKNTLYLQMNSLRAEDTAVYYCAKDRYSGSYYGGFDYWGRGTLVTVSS VL: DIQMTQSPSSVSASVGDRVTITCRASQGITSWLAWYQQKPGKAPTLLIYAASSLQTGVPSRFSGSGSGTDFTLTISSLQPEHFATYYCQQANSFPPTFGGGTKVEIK	0.00305
H4H9633P (antibody, IgG4, V domains shown, also called RG5) VH: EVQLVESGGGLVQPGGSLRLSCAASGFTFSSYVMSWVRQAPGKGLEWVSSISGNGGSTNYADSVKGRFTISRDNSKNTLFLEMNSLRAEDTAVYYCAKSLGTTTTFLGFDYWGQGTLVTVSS VL: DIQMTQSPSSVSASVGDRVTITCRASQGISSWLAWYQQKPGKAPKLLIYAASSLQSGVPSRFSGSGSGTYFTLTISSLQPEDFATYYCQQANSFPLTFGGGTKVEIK	0.0113
H1M9559N (antibody, IgG1, V domains shown, also called RG1) VH: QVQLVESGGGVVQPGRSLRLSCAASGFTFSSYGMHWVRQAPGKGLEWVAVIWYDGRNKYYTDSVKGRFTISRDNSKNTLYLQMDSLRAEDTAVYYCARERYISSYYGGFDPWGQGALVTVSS VL: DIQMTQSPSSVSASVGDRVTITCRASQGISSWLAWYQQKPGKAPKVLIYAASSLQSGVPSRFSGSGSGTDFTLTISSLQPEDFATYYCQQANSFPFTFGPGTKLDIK	0.00193
